IC50 reference
- assay-system: human mGlu2 receptor (Homo sapiens)
- Sequence (Q14416 19-872): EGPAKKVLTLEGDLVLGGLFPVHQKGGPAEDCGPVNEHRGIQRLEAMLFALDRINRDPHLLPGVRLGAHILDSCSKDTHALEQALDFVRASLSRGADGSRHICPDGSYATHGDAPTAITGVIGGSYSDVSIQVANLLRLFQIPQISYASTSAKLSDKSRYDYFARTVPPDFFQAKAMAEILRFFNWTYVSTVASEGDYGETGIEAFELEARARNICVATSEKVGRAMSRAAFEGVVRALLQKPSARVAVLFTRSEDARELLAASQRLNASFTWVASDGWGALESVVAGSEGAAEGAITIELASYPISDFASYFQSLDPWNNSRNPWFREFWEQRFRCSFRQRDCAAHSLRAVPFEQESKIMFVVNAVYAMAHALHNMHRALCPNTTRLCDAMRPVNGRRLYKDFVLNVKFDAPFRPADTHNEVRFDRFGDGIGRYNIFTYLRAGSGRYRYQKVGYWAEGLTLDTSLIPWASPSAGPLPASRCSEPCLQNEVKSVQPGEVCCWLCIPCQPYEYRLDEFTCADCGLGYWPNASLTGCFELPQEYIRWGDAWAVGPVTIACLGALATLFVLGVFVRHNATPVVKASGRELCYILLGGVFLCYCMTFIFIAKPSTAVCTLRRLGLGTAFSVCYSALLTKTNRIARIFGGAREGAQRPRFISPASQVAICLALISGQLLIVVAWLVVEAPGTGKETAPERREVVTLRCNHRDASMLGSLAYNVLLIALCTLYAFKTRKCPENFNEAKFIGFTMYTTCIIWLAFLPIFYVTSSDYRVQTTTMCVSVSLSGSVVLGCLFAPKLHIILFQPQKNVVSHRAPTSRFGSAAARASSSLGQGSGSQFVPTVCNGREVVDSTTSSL
- experiment-description: [35S]GTPγS binding assay, mGluR2 negative allosteric modulation (membranes from CHO cells transfected with human mGlu2 receptor, glutamate ~EC80 60 μM);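 also: membranes preincubated 30 min at 30 °C with compound plus glutamate, then [35S]GTPγS (0.1 nM) incorporation measured over another 30 min at 30 °C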
- experimental-conditions: GTPγS - hmGluR2 anGT pIC50, membranes with human mGlu2 receptor, glutamate ~EC80 (60 μM); pIC50 = -log IC50 (M)

compound	unit-spec	IC50
COCc1cc(N2C[C@H](C)n3ncc(C(=O)Nc4ccccn4)c3C2=O)ccc1C(F)(F)F	M	2.29e-08
COCC1CN(c2ccc(C(F)(F)F)cc2)C(=O)c2c(C(=O)Nc3cnccn3)cnn21 (centres unmarked)	M	1.02e-08
C[C@H]1CN(c2ccc(C(F)(F)F)c(Cl)c2)C(=O)c2c(C(=O)Nc3cccnc3)cnn21	M	1.07e-09
C[C@H]1CN(c2ccc(Cl)cc2)C(=O)c2c(C(=O)Nc3cnccn3)cnn21	M	6.76e-09
C[C@H]1CN(c2ccc(C(F)(F)F)cc2)C(=O)c2c(C(N)=O)cnn21	M	1.35e-06
Cc1cc(NC(=O)c2cnn3c2C(=O)N(c2ccc(C(F)(F)F)c(C)c2)C[C@@H]3C)ccn1	M	2.29e-09
COc1cc(N2C[C@H](C)n3ncc(C(=O)Nc4cncc(F)c4)c3C2=O)ccc1C(F)(F)F	M	3.72e-09
C[C@H]1CN(c2ccc(Cl)c(Cl)c2)C(=O)c2c(C(=O)Nc3ccc(F)cn3)cnn21	M	3.63e-09
